Test system: H460 tumor bearing mice
Experiment: Biodistribution in H460 tumor bearing mice
Assay type: in vivo, NMRI (nu/nu) mice
Conditions: timepoint 0.5 h
REPORTED ENDPOINT: summary: faeces (%)
Numbers only, in %.

# summary: faeces (compound: N[C@@H](CCC(CCC[18F])C(=O)O)C(=O)O (stereo partly shown) ) is 0

* * *

System: H460 tumor bearing mice
Assay: Biodistribution in H460 tumor bearing mice
Assay type: in vivo, NMRI (nu/nu) mice
Details: timepoint 2.0 h
REPORTED ENDPOINT: summary: faeces (%)
Answers are plain numbers, in %.

The recorded summary: faeces with H460 tumor bearing mice for N[C@@H](CCC(CCC[18F])C(=O)O)C(=O)O (stereo partly shown) was 0.01
